Target: T1, BALB/c mouse SIRP-α D1 domain (mouse (BALB/c strain))
T1 chain: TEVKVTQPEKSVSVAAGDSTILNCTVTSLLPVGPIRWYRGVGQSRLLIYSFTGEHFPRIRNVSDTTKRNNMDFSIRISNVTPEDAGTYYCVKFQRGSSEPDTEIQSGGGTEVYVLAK
Experiment: SPR, ProteOn, antibody on chip
Parameter: kon (M⁻¹ s⁻¹)
All answers are understood in M⁻¹ s⁻¹, so give the number only.

Please look at this binder and report its kon: AB21c (antibody, mouse IgG2a, V domains shown, Full-length mouse IgG2a) VH: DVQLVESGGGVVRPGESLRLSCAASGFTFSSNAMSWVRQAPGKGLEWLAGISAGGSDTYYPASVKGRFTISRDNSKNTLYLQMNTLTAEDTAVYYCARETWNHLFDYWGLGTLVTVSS VL: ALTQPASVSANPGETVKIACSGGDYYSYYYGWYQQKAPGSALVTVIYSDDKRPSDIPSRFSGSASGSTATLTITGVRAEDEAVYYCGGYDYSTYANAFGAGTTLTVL
462000

Report kon, nothing else, for this binder: AB3c (antibody, mouse IgG2a, V domains shown, Full-length mouse IgG2a) VH: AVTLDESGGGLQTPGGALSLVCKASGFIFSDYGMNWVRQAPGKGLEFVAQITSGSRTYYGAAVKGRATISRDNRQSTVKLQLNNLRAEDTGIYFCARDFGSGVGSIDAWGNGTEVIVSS VL: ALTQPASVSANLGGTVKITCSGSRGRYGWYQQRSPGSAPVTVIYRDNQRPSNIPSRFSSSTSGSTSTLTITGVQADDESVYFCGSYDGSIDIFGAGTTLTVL
776000

Give the reported kon for this binder. AB25c (antibody, mouse IgG2a, V domains shown, Full-length mouse IgG2a) VH: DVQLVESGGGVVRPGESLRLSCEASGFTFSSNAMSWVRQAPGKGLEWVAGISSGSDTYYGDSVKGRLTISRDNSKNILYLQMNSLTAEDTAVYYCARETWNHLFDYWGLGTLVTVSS VL: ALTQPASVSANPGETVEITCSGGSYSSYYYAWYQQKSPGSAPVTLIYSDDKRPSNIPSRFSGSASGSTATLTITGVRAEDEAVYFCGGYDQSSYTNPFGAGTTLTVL
303000

Give the measured kon for AB66c (antibody, mouse IgG2a, V domains shown, Full-length mouse IgG2a) VH: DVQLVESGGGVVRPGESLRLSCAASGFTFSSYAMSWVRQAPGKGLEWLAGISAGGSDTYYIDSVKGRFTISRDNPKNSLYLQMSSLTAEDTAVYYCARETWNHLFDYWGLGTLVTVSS VL: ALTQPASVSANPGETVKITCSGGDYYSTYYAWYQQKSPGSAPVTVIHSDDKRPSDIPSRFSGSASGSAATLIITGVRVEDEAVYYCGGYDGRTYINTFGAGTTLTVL
224000

Look up kon of AB27c (antibody, mouse IgG2a, V domains shown, Full-length mouse IgG2a) VH: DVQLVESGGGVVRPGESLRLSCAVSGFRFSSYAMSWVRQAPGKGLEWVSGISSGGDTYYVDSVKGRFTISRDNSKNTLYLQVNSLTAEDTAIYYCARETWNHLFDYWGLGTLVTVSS VL: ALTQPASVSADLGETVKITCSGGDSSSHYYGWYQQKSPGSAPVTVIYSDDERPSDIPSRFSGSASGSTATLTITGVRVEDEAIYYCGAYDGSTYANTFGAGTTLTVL and report it.
150000
